TARGET_SYSTEM: Bromodomain-containing protein 4 (Homo sapiens, UniProt O60885, Y390A)
PROTOCOL_NOTES: Inhibition of 6His-Thr-BRD4 (1 to 477 residues) BD2 domain Y390A mutant (unknown origin) incubated for 30 mins by TR-FRET assay
pIC50: −log10 of the molar value.
Rule: pIC50 under 6 gives false, otherwise true.

>>> print(df.to_string())
                                test_smiles                             target_system  assigned_category
0  C[C@H](Oc1ccc(C(=O)NCCC[C@@]2(F)CCCNC2)cc1-c1cn(C)nn1)c1ccccn1  Bromodomain-containing protein 4 (Homo sapiens, UniProt O60885, Y390A)               true
1  C[C@H](Oc1ccc(C(=O)NCC2CCOCC2)cc1-c1cn(C)nn1)c1ccccn1  Bromodomain-containing protein 4 (Homo sapiens, UniProt O60885, Y390A)               true
2  CCNC(=O)c1ccc(OCc2ncccn2)c(-c2cn(C)nn2)c1  Bromodomain-containing protein 4 (Homo sapiens, UniProt O60885, Y390A)              false
3  C[C@H](Oc1ccc(C(=O)N[C@H]2CC[C@H](O)CC2)cc1-c1cn(C)nn1)c1ccccn1  Bromodomain-containing protein 4 (Homo sapiens, UniProt O60885, Y390A)               true
4  Cn1cc(-c2cc(C(=O)N[C@H]3[C@@H]4COC[C@@H]43)cc(Cc3ccccc3)n2)nn1  Bromodomain-containing protein 4 (Homo sapiens, UniProt O60885, Y390A)               true

----------
TARGET_SYSTEM: Bromodomain testis-specific protein (Homo sapiens, UniProt Q58F21)
PROTOCOL_NOTES: Inhibition of 6His-FLAG-Tev-BRDT (1 to 397 residues) BD1 domain (unknown origin) incubated for 30 mins by TR-FRET assay
READOUT_KIND: IC50

>>> print(df.to_string())
                                test_smiles                             target_system  value_measured
0  CCNC(=O)c1ccc(OCc2cccc(C)n2)c(-c2cn(C)nn2)c1  Bromodomain testis-specific protein (Homo sapiens, UniProt Q58F21)       > 50.1 µM
1  CCNC(=O)c1cc(Cc2cccc3[nH]ccc23)nc(-c2cn(C)nn2)c1  Bromodomain testis-specific protein (Homo sapiens, UniProt Q58F21)         25.1 µM

----------
PROTOCOL_NOTES: Solubility of the compound in pH 6.5 FaSSIF at 1 mg measured after 4 hrs by HPLC analysis
Format: physicochemical
READOUT_KIND: solubility at 4 h (µg/mL)

In [3]: df
Out[3]:
                                test_smiles       readout_kind  units_symbol  value_measured
0      CCNC(=O)c1cc(Cc2ccccc2)nc(C(=O)NC)c1  solubility at 4 h         µg/mL             310
1  CC(=O)Nc1c(F)cc(C(=O)N[C@H]2CC[C@H](O)CC2)cc1O[C@@H](C)c1ccccc1  solubility at 4 h         µg/mL             996

----------
TARGET_SYSTEM: Bromodomain-containing protein 4 (Homo sapiens, UniProt O60885, Y390A)
PROTOCOL_NOTES: Inhibition of 6His-Thr-BRD4 (1 to 477 residues) BD2 domain Y390A mutant (unknown origin) incubated for 30 mins by TR-FRET assay
pIC50: −log10 of the molar value.
Rule: pIC50 under 7 gives -1, otherwise 1.

>>> df
                                 test_smiles  assigned_category
 0  CCNC(=O)c1cc(Cc2cccc(OC)c2)nc(-c2cn(C)nn2)c1                 -1
 1  C[C@H](Oc1ccc(C(N)=O)cc1-c1cn(C)nn1)c1ccccn1                 -1
 2  CCNC(=O)c1ccc(O[C@@H](C)c2ccccc2)c(-c2cn(C)nn2)c1                  1
 3  CCNC(=O)c1cc(Cc2ccc(OC)cc2)nc(-c2cn(C)nn2)c1                 -1
 4  CCNC(=O)c1ccc(OCc2cccnc2)c(-c2cn(C)nn2)c1                 -1
 5  CCNC(=O)c1ccc(OCCc2ccccc2)c(-c2cn(C)nn2)c1                 -1
 6  CCNC(=O)c1cc(Cc2ccccc2OC)nc(-c2cn(C)nn2)c1                 -1
 7  Cn1cc(-c2cc(C(=O)NCCC[C@@]3(F)CCCNC3)cc(Cc3ccccc3)n2)nn1                  1
 8             Cn1cc(-c2ccccc2OCc2ccccc2)nn1                 -1
 9  CCNC(=O)c1cc(Cc2ccc(F)cc2)nc(-c2cn(C)nn2)c1                 -1
10          Cc1nc(-c2ccccc2OCc2ccccc2)n[nH]1                 -1
11  CCNC(=O)c1ccc(OCc2cccc(C)n2)c(-c2cn(C)nn2)c1                 -1
12  Cn1cc(-c2cc(C(=O)NCC[C@]3(F)CCCNC3)cc(Cc3ccccc3)n2)nn1                  1
13  CCNC(=O)c1cc(Cc2cccc(F)c2)nc(-c2cn(C)nn2)c1                 -1
14  C[C@H](Oc1ccc(C(=O)NCC[C@@H]2CNCCO2)cc1-c1cn(C)nn1)c1ccccn1                  1
15             Cc1cn(-c2ccccc2OCc2ccccc2)nn1                 -1
16  Cn1cc(-c2cc(C(=O)NCC3CCOCC3)cc(Cc3ccccc3)n2)nn1                 -1
17  Cn1cc(-c2cc(C(=O)NCCCC3CCNCC3)cc(Cc3ccccc3)n2)nn1                  1
18  CCNC(=O)c1ccc(OCc2ccc(OC)cc2)c(-c2cn(C)nn2)c1                 -1
19  CCNC(=O)c1ccc(OCc2cccc(OC)c2)c(-c2cn(C)nn2)c1                 -1
20  CCNC(=O)c1cc(Cc2cccc3[nH]ccc23)nc(-c2cn(C)nn2)c1                  1
21    Cn1cc(-c2cc(C(N)=O)cc(Cc3ccccc3)n2)nn1                 -1
22  C[C@H](Oc1ccc(C(=O)N[C@H]2[C@@H]3COC[C@@H]32)cc1-c1cn(C)nn1)c1ccccn1                  1
23  C[C@H](Oc1ccc(C(=O)NC2CC2)cc1-c1cn(C)nn1)c1ccccn1                  1
24  Cn1cc(-c2cc(C(=O)NCC[C@@H]3CNCCO3)cc(Cc3ccccc3)n2)nn1                  1
25  CCNC(=O)c1ccc(OCc2ccncc2)c(-c2cn(C)nn2)c1                 -1
26             Cc1nnc(-c2ccccc2OCc2ccccc2)o1                 -1
27  CCNC(=O)c1ccc(OCc2ccccn2)c(-c2cn(C)nn2)c1                 -1
28  CCNC(=O)c1cc(Cc2ccccc2F)nc(-c2cn(C)nn2)c1                 -1
29  CCNC(=O)c1ccc(O[C@H](C)c2ccccc2)c(-c2cn(C)nn2)c1                 -1
30             Cc1cc(-c2ccccc2OCc2ccccc2)on1                 -1

Ref: ChEMBL document CHEMBL4834404
